- Measured target: hGPR40 (Homo sapiens)
- Construct: 3xFLAG
- Sequence (O14842 whole entry): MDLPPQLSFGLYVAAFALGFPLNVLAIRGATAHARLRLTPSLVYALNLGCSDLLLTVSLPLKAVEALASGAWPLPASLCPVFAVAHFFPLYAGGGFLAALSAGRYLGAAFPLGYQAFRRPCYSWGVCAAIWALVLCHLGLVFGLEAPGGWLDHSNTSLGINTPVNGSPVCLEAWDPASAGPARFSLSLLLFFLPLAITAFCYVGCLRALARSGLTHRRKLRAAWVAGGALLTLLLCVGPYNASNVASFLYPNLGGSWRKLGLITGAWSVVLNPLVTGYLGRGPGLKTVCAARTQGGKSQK
- Assay remarks: FDSS-Based Intracellular Calcium Assay (Human GRP40 In Vitro assay)
- Condition summary: cell lines expressing GPR40, intracellular Ca2+ response, FDSS reader
pEC50: −log10 of the molar value. Counter-ions that a name gives are not always drawn.
Measurement name: pEC50

For orientation, consider the following solved cases.
COc1ccc(F)c(-c2cccc(Oc3ccc(N4CCC[C@H]4CC(=O)O)cc3)c2C)c1 [Example 68, TFA] :: 6.50
Cc1ccccc1Oc1ccc(N2CCC[C@H]2CC(=O)O)cc1 [Example 5, HCl] :: 7.19

[a] Cc1ccccc1Cc1ccc(N2C[C@@H](C(F)(F)F)C[C@H]2CC(=O)O)cc1 [Example 40, TFA]
[b] Cc1cccc(C)c1Oc1ccc(N2CCC[C@@H]2CC(=O)O)cc1 [Example 4, HCl]
Q: Lab notebook, comparison: a versus b , higher pEC50 goes to which? Answer = label.
A: a
(a: 7.21, b: 5.42)

[1] COc1ccc(Oc2ccc(N3C[C@@H](C(F)(F)F)C[C@H]3CC(=O)O)cc2)c(C)c1 [Example 50, TFA]
[2] Cc1ccc(COc2ccc(N3CCC[C@@H]3CC(=O)O)cc2)cc1
Q: Lab notebook, comparison: 1 versus 2 , higher pEC50 goes to which? Answer = label.
A: 1

###

- Measured target: hGPR40 (Homo sapiens)
- Construct: 3xFLAG
- Assay remarks: FDSS-Based Intracellular Calcium Assay (Human GRP40 In Vitro assay)
- Condition summary: cell lines expressing GPR40, intracellular Ca2+ response, FDSS reader
Counter-ions that a name gives are not always drawn.
Measurement name: EC50 (nM)

[a] Cc1ccccc1Oc1ccc(N2C[C@@H](C(F)(F)F)C[C@H]2CC(=O)O)cc1 [Example 41, TFA]
[b] Cc1ccccc1Sc1ccc(N2CCC[C@H]2CC(=O)O)cc1 [Example 44, TFA]
[c] Cc1ccccc1Oc1ccc(N2CCC[C@H]2CC(=O)O)cc1F [Example 1, TFA]
Q: Sort the entries above by EC50, smallest first. Respond with the label ranking, as requested.
A: a, b, c
(a: 56 nM, b: 352 nM, c: 1630 nM)

###

- Measured target: hGPR40 (Homo sapiens)
- Construct: 3xFLAG
- Assay remarks: FDSS-Based Intracellular Calcium Assay (Human GRP40 In Vitro assay)
- Condition summary: cell lines expressing GPR40, intracellular Ca2+ response, FDSS reader
Structures can show the parent of a compound that is named as a salt.
Measurement name: EC50 (µM)

For orientation, consider the following solved cases.
CO[C@H]1C[C@@H](CC(=O)O)N(c2ccc(Oc3ccccc3C)cc2)C1 [Example 56, TFA] :: 2.32
O=C(O)C[C@@H]1C[C@H](C(F)(F)F)CN1c1ccc(Oc2ccccc2C(F)(F)F)cc1 [Example 52, TFA] :: 0.305

[I] Cc1ccccc1COc1cc(N2CCC[C@H]2CC(=O)O)ccn1 [Example 76, TFA]
[II] O=C(O)C[C@@H]1CCCN1c1ccc(Cc2ccc(OCc3ccccc3)cc2)cc1 [Example 58, TFA]
Q: Select one. Lower EC50: I or II Answer = label.
A: II
(II: 0.331 µM, I: 4.39 µM)
